Assay Text: HepG2 liver cancer cell viability effects, profiling panel, resazurin fluorescence, 24 h, PK04 Diversity Set (AID 1172); also: test concentration not given here
Cond: higher = more signal
Label rule met for high-side z-score (at or above -0.1) and rule not met for low-side z-score (below it).

Here's what some known entries look like.
[
  {
    "Compound": "CCOC(=O)CCN1C(=O)[C@H]2[C@H]3[C@H](O)[C@H](O)CC(=NOCC=C(C)CCC=C(C)C)[C@H]3CC[C@H]2C1=O",
    "Classification": "rule not met"
  },
  {
    "Compound": "CC(CCN1CCc2nc(-c3ccccc3)c(-c3ccccc3)cc2C1)=NOC(C)CN1CCCc2nc(C)c(C)cc21 (stereo not drawn)",
    "Classification": "rule met"
  },
  {
    "Compound": "CO[C@@H]1[C@H](O)CO[C@H]1C=Cc1ccccc1",
    "Classification": "rule not met"
  },
  {
    "Compound": "CC(C)=CCCC(C)=CCON=C1C[C@@H](O)[C@@H](O)[C@@H]2[C@@H]3C(=O)N(Cc4ccc5c(c4)OCO5)C(=O)[C@@H]3CC[C@H]12",
    "Classification": "rule met"
  },
  {
    "Compound": "CO[C@@H](C(C)C)[C@@H](C)C1OC(=O)CC1O (stereo partly drawn)",
    "Classification": "rule not met"
  },
  {
    "Compound": "CO[C@H]1COC(=O)[C@H](CCSC)NC(=O)CC=C[C@@H](C)[C@H](OC)COC(=O)[C@@H](OCc2ccccc2)C=C[C@@H]1C",
    "Classification": "rule met"
  }
]

Turning now to a further compound:
Could you verify whether the entry O=C1C2=CC[C@H]3C(=O)N(C[C@@H]4CCCO4)C(=O)[C@H]3[C@H]2[C@H](O)[C@@H]2O[C@H]12 shows z-score of no less than -0.1? rule not met

Data credit: PubChem BioAssay
